experiment_description: NCI Yeast Anticancer Drug Screen. Data for the bub3 strain (AID 167)
experimental_setup: S. cerevisiae bub3 mutant strain, at 50.0 µM
The panel holds about 79,000 compounds, 15% with a hit somewhere; the sample as a whole holds those more often. Activity calls are given as the source filed them. Cut-off read from the data, not from the text of the source: active = growth inhibition above about 70%; inactive = the rest.
Hi! Could you answer with just one of these? active, inactive

Example entries begin here.
{"compound": "O=[N+]([O-])c1ccc(/C=C(/c2ccc([N+](=O)[O-])o2)S(=O)(=O)c2ccccc2)o1", "class_label": "inactive"}
{"compound": "O=C1C=CC(c2ccccc2)(c2ccccc2)O1", "class_label": "inactive"}
{"compound": "CN(C)CCC(c1ccccc1)C(CO)c1ccccc1 (stereo not drawn)", "class_label": "inactive"}
{"compound": "CCCCCC(=O)OCCOCCOC", "class_label": "inactive"}
{"compound": "N#CCCN(CCC#N)C(=O)Nc1cccc2ccccc12", "class_label": "inactive"}

Q: How did this test come out for `OCCCCCCN=Cc1ccccc1O.OCCCCCCN=Cc1ccccc1O.[Cu]` ?
Result: inactive

Q: Hey, what did the test say about `CO[Si](CCCN)(OC)OC` ?
Result: inactive

Q: Any idea what this test logged for `CN(C)CCCNC=O` ?
Result: inactive
